# PROTOCOL NOTES: Pharmacokinetic study, oral dosing, plasma concentration by LC-MS/MS (Example II.5)
# Assay type: in vivo
# SETTINGS: mouse, male Balb/c mice, oral 20 mg/kg as dihydrochloride in saline, free base quantified, below LLOQ designated zero, read-out: conc. at 120 min
Reported values of concentration at 120 min for individual entries
OBSERVATION TYPE: concentration at 120 min (nM)

CN1CCC(Cn2cnc(-c3ccc(F)cc3)c2-c2ccnc3[nH]ccc23)CC1    530
Cc1nnc(Cn2cnc(-c3ccc(F)cc3)c2-c2ccnc3[nH]ccc23)[nH]1    430
CN1CCC(F)(Cn2cnc(-c3ccc(F)cc3)c2-c2ccnc3[nH]ccc23)CC1    760
Cn1cc(Cn2cnc(-c3ccc(F)cc3)c2-c2ccnc3[nH]ccc23)nn1    1120
Cn1ccc(Cn2cnc(-c3ccc(F)cc3)c2-c2ccnc3[nH]ccc23)n1    70

----------
# System: primary CLL cells
# PROTOCOL NOTES: Cytotoxicity, TMRE flow cytometry viability, primary CLL cells (Example II.1)
# Type: cell-based
# SETTINGS: Homo sapiens, CLL cell, 6 hours, TMRE positive cells normalized to control, ratio to PF670462, <1 = higher cytotoxicity than PF670462, read-out: Viability of cells, Compound of formula I (100 μM), relative to PF670462 (100 μM), CLL primary cells
OBSERVATION TYPE: viability at 100 µM (%)

CN(C)[C@H]1CC[C@H](n2cnc(-c3ccc(F)c(Cl)c3)c2-c2ccnc3[nH]ccc23)CC1    5
CNC(=O)N1CCC(n2cnc(-c3ccc(F)cc3)c2-c2ccnc3[nH]ccc23)CC1    87
CN1CCC(O)(Cn2cnc(-c3ccc(F)cc3)c2-c2ccnc3[nH]ccc23)CC1    87
Fc1ccc(-c2ncn(C3CCC3)c2-c2ccnc3[nH]ccc23)cc1    52

----------
Reported values of concentration at 30 min for individual entries
# PROTOCOL NOTES: Pharmacokinetic study, oral dosing, plasma concentration by LC-MS/MS (Example II.5)
# Format: in vivo
# SETTINGS: mouse, male Balb/c mice, oral 20 mg/kg as dihydrochloride in saline, free base quantified, below LLOQ designated zero, read-out: conc. at 30 min
OBSERVATION TYPE: concentration at 30 min

Fc1ccc(-c2ncn(Cc3cocn3)c2-c2ccnc3[nH]ccc23)cc1    580 nM
Cn1cc(Cn2cnc(-c3ccc(F)cc3)c2-c2ccnc3[nH]ccc23)nn1    3530 nM
Fc1ccc(-c2ncn(Cc3cccnc3)c2-c2ccnc3[nH]ccc23)cc1    260 nM
Fc1ccc(-c2ncn(Cc3nc[nH]n3)c2-c2ccnc3[nH]ccc23)cc1    8760 nM
Cn1cnc(Cn2cnc(-c3ccc(F)cc3)c2-c2ccnc3[nH]ccc23)c1    6630 nM
Cn1ccc(Cn2cnc(-c3ccc(F)cc3)c2-c2ccnc3[nH]ccc23)n1    210 nM
CN(C)[C@H]1C[C@@H](n2cnc(-c3ccc(F)cc3)c2-c2ccnc3[nH]ccc23)C1    920 nM
Cc1nnc(Cn2cnc(-c3ccc(F)cc3)c2-c2ccnc3[nH]ccc23)[nH]1    2420 nM
CN1CCC(F)(Cn2cnc(-c3ccc(F)cc3)c2-c2ccnc3[nH]ccc23)CC1    1830 nM
CN1CCC(Cn2cnc(-c3ccc(F)cc3)c2-c2ccnc3[nH]ccc23)CC1    720 nM
Cn1nnc(Cn2cnc(-c3ccc(F)cc3)c2-c2ccnc3[nH]ccc23)n1    7240 nM
Cn1ccnc1Cn1cnc(-c2ccc(F)cc2)c1-c1ccnc2[nH]ccc12    730 nM
